Target: T1, Human IL-7R-hFc antigen (R&D systems) (human, UniProt P16871 21-239)
T1 construct: Bought from R&D Systems; not shown: human Fc (hFc) of the bought fusion
T1 sequence (looked up): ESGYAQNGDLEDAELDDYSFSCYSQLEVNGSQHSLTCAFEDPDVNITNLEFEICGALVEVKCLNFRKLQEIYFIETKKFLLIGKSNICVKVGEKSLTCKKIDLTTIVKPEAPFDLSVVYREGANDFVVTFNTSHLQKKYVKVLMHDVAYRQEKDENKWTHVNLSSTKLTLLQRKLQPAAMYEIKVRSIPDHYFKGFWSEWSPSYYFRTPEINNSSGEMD
Assay: SPR (Biacore 2000/3000), IL-7R-hFc captured on anti-human Fc, antibody as analyte
Exam item: assign Met to entries whose koff is below 0.0003 s⁻¹ and Not met to entries at or above 0.0003 s⁻¹. Note that a value of exactly 0.0003 s⁻¹ receives Not met.

(Q) koff strictly < 0.0003 s⁻¹ for this binder? P4B3 Fab (Fab, V domains shown) VH: QVTLKESGGGLVQPGGSLRLSCAASGFTFSNYGMHWVRQAPGKGLEWVSAISGSGGSTYYADSVKGRFTISRDNSKNTVYLQMNSLRDEDTAVYYCARDISGGGMDVWGQGTTVTVSS VL: NFMLTQPHSVSESPGKTVTISCTGSSGRIASSYVQWYQQRPGSAPTTVIYEDNQRPSGVPDRFSGSIDSSSNSASLTISGLKTEDEADYYCQSYASSSLWVFGGGTQLTVLS
(A) Not met

(Q) koff strictly < 0.0003 s⁻¹ for this binder? P3A9 Fab (Fab, V domains shown) VH: QVNLRESGGGLVKPGGSLRLSCAASGFTFDDSVMHWVRQAPGKGLEWLSLVGWDGSATYYADSVKGRFTISRDNTKNLLYLQMNSLRAEDTAVYYCARQGDYVFDYWGQGTLVTVSS VL: NFMLTQPHSVSGSPGKTVTISCTRSSGSIDSSYVQWYQQRPGNSPTTVIYEDDQRPSGVPDRFSGSIDSSSNSASLTISGLVTEDEADYYCQSYDSSHLVFGGGTKLTVLC
(A) Not met

(Q) koff strictly < 0.0003 s⁻¹ for this binder? C1GM Fab (Fab, V domains shown) VH: EVQLVESGGGLVKPGGSLRLSCAASGFTFDDSVMHWVRQAPGKGLEWVSLVGWDGFFTYYADSVKGRFTISRDNAKNSLYLQMNSLRAEDTAVYYCARQGDYMGNNWGQGTLVTVSS VL: NFMLTQPHSVSESPGKTVTISCTRSSGSIDSSYVQWYQQRPGSSPTTVIYEDDQRPSGVPDRFSGSIDSSSNSASLTISGLKTEDEADYYCQSYDFHHLVFGGGTKLTVL
(A) Met

(Q) koff strictly < 0.0003 s⁻¹ for this binder? HAL403a Fab (Fab, V domains shown) VH: QVNLRESGGGLVKPGGSLRLSCAASGFTFDDSVMHWVRQAPGKGLEWLSLVGWDGFFTYYADSVKGRFTISRDNTKNLLYLQMNSLRAEDTAVYYCARQGDYMGNNWGQGTLVTVSS VL: NFMLTQPHSVSGSPGKTVTISCTRSSGSIDSSYVQWYQQRPGNSPTTVIYEDDQRPSGVPDRFSGSIDSSSNSASLTISGLVTEDEADYYCQSYDFHHLVFGGGTKLTVLC
(A) Met

(Q) koff strictly < 0.0003 s⁻¹ for this binder? HAL403b Fab (Fab, V domains shown) VH: QVNLRESGGGLVKPGGSLRLSCAASGFTFDDSVMHWVRQAPGKGLEWLSLVGWDGFFTYYADSVKGRFTISRDNTKNLLYLQMNSLRAEDTAVYYCARQGDYMGNNWGQGTLVTVSS VL: NFMLTQPHSVSGSPGKTVTISCTRSSGSIDSSYVQWYQQRPGNSPTTVIYEDDQRPSGVPDRFSGSIDSSSNSASLTISGLVTEDEADYYCMQYDFHHLVFGGGTKLTVLC
(A) Met

(Q) koff strictly < 0.0003 s⁻¹ for this binder? P2D2 Fab (Fab, V domains shown) VH: QVNLRESGGGLVKPGGSLRLSCAASGFTFDDSVMHWVRQAPGKGLEWLSLVGWDGFFTYYADSVKGRFTISRDNTKNLLYLQMNSLRAEDTAVYYCARQGDYVFNNWGQGTLVTVSS VL: NFMLTQPHSVSGSPGKTVTISCTRSSGSIDSSYVQWYQQRPGNSPTTVIYEDDQRPSGVPDRFSGSIDSSSNSASLTISGLVTEDEADYYCMQYDSSHLVFGGGTKLTVLC
(A) Not met

(Q) koff strictly < 0.0003 s⁻¹ for this binder? P2E11 Fab (Fab, V domains shown) VH: QVNLRESGGGLVKPGGSLRLSCAASGFTFDDSVMHWVRQAPGKGLEWLSLVGWDGFFTYYADSVKGRFTISRDNTKNLLYLQMNSLRAEDTAVYYCARQGDYMGDYWGQGTLVTVSS VL: NFMLTQPHSVSGSPGKTVTISCTRSSGSIDSSYVQWYQQRPGNSPTTVIYEDDQRPSGVPDRFSGSIDSSSNSASLTISGLVTEDEADYYCQSYDFHHLVFGGGTKLTVLC
(A) Not met
